Consider the following Ki data for Coagulation factor VII (Homo sapiens, UniProt P08709), collected from several reports.
parameter-measured: Ki (nM)

• CO[C@H](COS(=O)(=O)[O-])C(=O)N[C@H](C(=O)N1[C@H](C(=O)NCCC2=CC[N+](=C(N)N)C2)C[C@@H]2C[C@H](O)[C@@H](O[C@H]3O[C@H](CO)[C@@H](O)[C@H](O)[C@H]3O)C[C@@H]21)C(C)C = 90
• CC1(C)[C@@H]2C[C@H]3OB([C@H](CCCCN)NC(=O)Cn4nc(COCc5ccccc5)nc4Cc4ccccc4)O[C@@]3(C)[C@H]1C2 = 1500
• CC(C)c1cccc(-c2cc(C(CC(=O)O)C(=O)O)cc(-c3nc4ccc(C(=N)N)cc4[nH]3)c2O)c1 (stereo not given) = 76
• N=C(N)c1ccc2c(c1)[C@@H](c1ccccc1)C[C@@H](c1cc(N)cc(-c3ccccc3C(=O)O)c1)N2 (racemic) = 41

(1) N=C(N)c1ccc2[nH]c(-c3cccc(-c4cc(CNC(=O)N5CCOCC5)ccc4O)c3O)cc2c1
(2) N=C(N)c1ccc2[nH]c(-c3cc(C(CC(=O)O)C(=O)O)cc(-c4cccc(OC(F)F)c4)c3O)nc2c1 (stereo not given)
Look at 1 and 2 . Which one has the lower recorded Ki number? Label of pick, please.
1
